# Test system: Echovirus type 11 (ECHO 11)
# protocol.notes: Anti-echoviral cell culture assay (XTT, EC50), ECHO 11
# Type: cell-based, echovirus 11 in MRC-5 cells
# stated.conditions: Enterovirus B; ECHO-11; read-out: EC50
pEC50: −log10 of the molar value.
Measured pEC50 of individual entries

# smiles.data, pEC50
rows = [
    ("CCOC(=O)/C=C/[C@H](CCC(N)=O)NC(=O)[C@H](Cc1ccccc1)n1cccc(NC(=O)C2CCCC2)c1=O", 6.46),
    ("CCOC(=O)/C=C/[C@H](CCC(N)=O)NC(=O)[C@H](Cc1ccccc1)n1cccc(NC(=O)OCc2ccccc2)c1=O", 6.80),
    ("CCOC(=O)/C=C\\[C@H](CCC(N)=O)NC(=O)[C@H](Cc1ccccc1)n1cccc(NC(=O)c2cc(C)on2)c1=O", 7.27),
]

* * *

# test.system: Recombinant rhinovirus 3C protease, serotype 14 (Human rhinovirus 14, UniProt P03303)
# Construct: Recombinant rhinovirus 3C proteases; made in house
# Sequence (P03303 1538-1719): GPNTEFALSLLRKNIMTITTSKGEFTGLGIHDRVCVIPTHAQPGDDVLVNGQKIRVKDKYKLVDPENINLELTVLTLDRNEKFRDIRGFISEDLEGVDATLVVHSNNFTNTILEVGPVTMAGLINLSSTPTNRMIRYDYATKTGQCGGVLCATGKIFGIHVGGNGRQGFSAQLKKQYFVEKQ
# protocol.notes: Inhibition of rhinovirus 3C protease (FRET assay, kobs/[I]), serotype 14
# Format: biochemical
# stated.conditions: pH 7.6; HRV-14 3C protease; read-out: kobs/[I] (3C protease inhibition activity)
assay.metric: kinact/KI

# compound, assay.metric, value
measured = [
    ("C#CC[C@@H](C(=O)N[C@H](/C=C/C(=O)OC1CCCCCC1)C[C@@H]1CCNC1=O)n1cccc(NC(=O)c2cc(C)on2)c1=O [Compound 57]", "kinact/KI", "47000 M⁻¹ s⁻¹"),
    ("Cc1cc(C(=O)Nc2cccn([C@@H](Cc3ccc(F)c(F)c3)C(=O)N[C@H](/C=C/C(=O)OC3CCC3)C[C@@H]3CCNC3=O)c2=O)no1 [Compound 58]", "kinact/KI", "2.2e+06 M⁻¹ s⁻¹"),
    ("C#CC[C@@H](C(=O)N[C@H](/C=C/C(=O)OCc1ccccc1)C[C@@H]1CCNC1=O)n1cccc(NC(=O)c2cc(C)on2)c1=O [Compound 63]", "kinact/KI", "300000 M⁻¹ s⁻¹"),
    ("CC[C@@H](C(=O)N[C@H](/C=C/C(=O)OCc1ccccc1)C[C@@H]1CCNC1=O)n1cccc(NC(=O)c2cc(C)on2)c1=O [Compound 62]", "kinact/KI", "210000 M⁻¹ s⁻¹"),
    ("CC[C@@H](C(=O)N[C@H](/C=C/C(=O)OC1CCCCCC1)C[C@@H]1CCNC1=O)n1cccc(NC(=O)c2cc(C)on2)c1=O [Compound 61]", "kinact/KI", "15000 M⁻¹ s⁻¹"),
    ("Cc1cc(C(=O)Nc2cccn([C@@H](Cc3ccc(F)cc3)C(=O)N[C@H](/C=C/C(=O)OC(C)C)C[C@@H]3CCNC3=O)c2=O)no1 [Compound 67]", "kinact/KI", "462000 M⁻¹ s⁻¹"),
]

* * *

# test.system: Recombinant rhinovirus 3C protease, serotype 14 (Human rhinovirus 14, UniProt P03303)
# Construct: Recombinant rhinovirus 3C proteases; made in house
# protocol.notes: Inhibition of rhinovirus 3C protease (FRET assay, kobs/[I]), serotype 14
# Type: biochemical
# stated.conditions: pH 7.6; HRV-14; read-out: kobs/[I] (3C protease inhibition activity)
Measured kinact/KI of individual entries

# smiles.data, test.system, u, kinact/KI
measured = [
    ("CCOC(=O)/C=C/[C@H](CCC(N)=O)NC(=O)[C@H](Cc1ccccc1)n1cccc(NC(C)=O)c1=O", "Recombinant rhinovirus 3C protease, serotype 14 (Human rhinovirus 14, UniProt P03303)", "M⁻¹ s⁻¹", 7660),
    ("CCOC(=O)/C=C/[C@H](C[C@@H]1CCNC1=O)NC(=O)[C@@H]1CCc2ccc(NC(=O)c3cc(C)on3)c(=O)n21", "Recombinant rhinovirus 3C protease, serotype 14 (Human rhinovirus 14, UniProt P03303)", "M⁻¹ s⁻¹", 177000),
    ("C#CC[C@@H](C(=O)N[C@H](/C=C/C(=O)OC1CCC1)C[C@@H]1CCNC1=O)n1cccc(NC(=O)c2cc(C)on2)c1=O", "Recombinant rhinovirus 3C protease, serotype 14 (Human rhinovirus 14, UniProt P03303)", "M⁻¹ s⁻¹", 207000),
]
